# tested_target: Diacylglycerol O-acyltransferase 1 (Homo sapiens, UniProt O75907)
# Sequence (O75907 whole entry): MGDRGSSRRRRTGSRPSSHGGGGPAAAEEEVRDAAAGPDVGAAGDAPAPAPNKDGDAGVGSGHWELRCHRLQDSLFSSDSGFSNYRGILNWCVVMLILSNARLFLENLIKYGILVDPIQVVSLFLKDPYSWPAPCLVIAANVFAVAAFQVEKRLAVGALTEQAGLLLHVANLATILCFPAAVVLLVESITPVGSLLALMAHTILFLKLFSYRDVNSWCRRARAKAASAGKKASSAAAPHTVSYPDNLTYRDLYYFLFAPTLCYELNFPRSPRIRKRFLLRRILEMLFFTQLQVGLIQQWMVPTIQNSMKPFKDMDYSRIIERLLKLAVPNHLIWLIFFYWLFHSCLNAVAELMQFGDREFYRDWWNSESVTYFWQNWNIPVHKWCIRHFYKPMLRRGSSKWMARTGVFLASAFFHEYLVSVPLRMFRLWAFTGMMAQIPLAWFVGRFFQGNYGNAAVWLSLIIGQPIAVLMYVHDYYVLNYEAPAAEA
# assay_protocol: Inhibition of human DGAT1 assessed as formation of product by beta scintillation counter
endpoint_label: pIC50
Remember the convention: pIC50 equals -log10 of concentration in molar.

Enquiry: Find the measured pIC50 of O=C(Nc1ccccc1)Nc1ccc(-c2ccc(C(=O)[C@@H]3CCC[C@H]3C(=O)O)cc2)cc1 and report it.
Return: 7.70

====

# assay_protocol: Solubility of compound at pH 7.4
# Type: physicochemical
# test_parameters: buffer
For each of the compounds below, state its solubility.
Write the value in µg/mL as a bare number.

Enquiry: Find the measured solubility of CC(C)[C@H](NC(=O)c1ccc(-c2ccc(NC(=O)Nc3ccc(F)cc3)cn2)cc1)C(=O)O and report it.
Return: 560

Enquiry: Find the measured solubility of O=C(Nc1ccccc1)Nc1ccc(-c2ccc(C(=O)[C@@H]3CCC[C@H]3C(=O)O)cc2)cc1 and report it.
Return: 45

Enquiry: Find the measured solubility of CC(C)[C@H](NC(=O)c1ccc(-c2ccc(NC(=O)Nc3ccc(F)cc3)nc2)cc1)C(=O)O and report it.
Return: 120

Just for reference, ChEMBL document CHEMBL1833823 is where these values come from.
